# systemTested: UniProt P22607
# Sequence (P22607 whole entry, looked up): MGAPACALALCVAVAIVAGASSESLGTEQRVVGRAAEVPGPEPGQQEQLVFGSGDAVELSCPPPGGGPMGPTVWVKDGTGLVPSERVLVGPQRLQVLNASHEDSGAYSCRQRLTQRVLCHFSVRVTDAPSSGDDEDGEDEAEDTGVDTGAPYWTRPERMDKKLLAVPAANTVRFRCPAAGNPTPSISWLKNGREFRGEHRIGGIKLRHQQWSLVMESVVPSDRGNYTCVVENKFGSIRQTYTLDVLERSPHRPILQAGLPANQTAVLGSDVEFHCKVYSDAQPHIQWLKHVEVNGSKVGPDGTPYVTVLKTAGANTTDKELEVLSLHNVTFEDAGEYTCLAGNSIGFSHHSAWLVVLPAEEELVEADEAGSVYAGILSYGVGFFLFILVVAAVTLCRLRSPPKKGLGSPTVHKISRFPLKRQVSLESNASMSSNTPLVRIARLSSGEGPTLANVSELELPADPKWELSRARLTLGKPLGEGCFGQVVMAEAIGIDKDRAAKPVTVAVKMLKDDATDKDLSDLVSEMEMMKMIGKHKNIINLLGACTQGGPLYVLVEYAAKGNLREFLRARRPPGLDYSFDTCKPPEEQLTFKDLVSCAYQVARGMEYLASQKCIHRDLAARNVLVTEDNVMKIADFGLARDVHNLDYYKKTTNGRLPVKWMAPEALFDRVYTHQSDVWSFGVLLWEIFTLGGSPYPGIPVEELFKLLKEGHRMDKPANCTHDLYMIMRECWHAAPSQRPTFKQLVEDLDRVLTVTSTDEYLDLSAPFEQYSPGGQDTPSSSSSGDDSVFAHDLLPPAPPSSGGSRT
# measurementProtocol: Caliper, Mobility shift assay off-chip
# runParameters: compound 0.2 µM
reportedMetric: inhibition (%)
Express the result in % but write the number alone.

Worked cases, inhibition given:
[
  {
    "compoundStructureString": "CNC(=O)c1cc(Oc2ccc(NC(=O)Nc3ccc(Cl)c(C(F)(F)F)c3)cc2)ccn1",
    "numericReadout": 51.7
  },
  {
    "compoundStructureString": "Cc1ccc(Nc2nccc(N(C)c3ccc4c(C)n(C)nc4c3)n2)cc1S(N)(=O)=O",
    "numericReadout": 68.5
  },
  {
    "compoundStructureString": "COc1cc2c(Oc3ccc4[nH]c(C)cc4c3F)ncnc2cc1OCCCN1CCCC1",
    "numericReadout": 96.5
  }
]

For the next question, use this molecule.
Record CCN(CC)CCNC(=O)c1c(C)[nH]c(/C=C2\C(=O)Nc3ccc(F)cc32)c1C , field inhibition: 75

* * *

# inhibition per entry
# systemTested: CHEK1 (human) (UniProt O14757)
# Sequence (O14757 whole entry, looked up): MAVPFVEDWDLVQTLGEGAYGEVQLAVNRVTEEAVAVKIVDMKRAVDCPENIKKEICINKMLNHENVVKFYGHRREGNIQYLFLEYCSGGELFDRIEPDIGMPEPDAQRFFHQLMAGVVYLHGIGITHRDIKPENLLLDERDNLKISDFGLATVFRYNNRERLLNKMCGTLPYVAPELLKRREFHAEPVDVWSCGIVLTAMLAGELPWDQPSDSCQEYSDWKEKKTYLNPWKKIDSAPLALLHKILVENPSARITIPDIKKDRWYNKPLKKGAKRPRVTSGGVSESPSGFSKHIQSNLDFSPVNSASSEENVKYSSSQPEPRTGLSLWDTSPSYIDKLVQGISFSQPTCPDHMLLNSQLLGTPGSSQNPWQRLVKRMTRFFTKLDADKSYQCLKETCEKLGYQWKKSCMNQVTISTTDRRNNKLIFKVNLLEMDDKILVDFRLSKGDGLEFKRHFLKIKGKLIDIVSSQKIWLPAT
# measurementProtocol: Caliper, Mobility shift assay off-chip
# runParameters: compound 0.2 µM
Express the result in % but write the number alone.

[
  {
    "compoundStructureString": "Cc1ccc(Nc2nccc(N(C)c3ccc4c(C)n(C)nc4c3)n2)cc1S(N)(=O)=O",
    "reportedMetric": "inhibition",
    "numericReadout": 0.3
  },
  {
    "compoundStructureString": "CCN(CC)CCNC(=O)c1c(C)[nH]c(/C=C2\\C(=O)Nc3ccc(F)cc32)c1C",
    "reportedMetric": "inhibition",
    "numericReadout": 59.3
  },
  {
    "compoundStructureString": "CNC(=O)c1cc(Oc2ccc(NC(=O)Nc3ccc(Cl)c(C(F)(F)F)c3)cc2)ccn1",
    "reportedMetric": "inhibition",
    "numericReadout": 5.3
  }
]

For the next question, use this compound.
Record COc1cc2c(Oc3ccc4[nH]c(C)cc4c3F)ncnc2cc1OCCCN1CCCC1 , field inhibition: -0.1

* * *

# systemTested: MAP4K4 (human)
# measurementProtocol: Caliper, Mobility shift assay off-chip
# runParameters: compound 0.02 µM
# inhibition per entry
Express the result in % but write the number alone.

Record CNC(=O)c1ccccc1Sc1ccc2c(/C=C/c3ccccn3)n[nH]c2c1 , field inhibition: 1.2

Record Cc1ccc(Nc2nccc(N(C)c3ccc4c(C)n(C)nc4c3)n2)cc1S(N)(=O)=O , field inhibition: 3.9

Record COc1cc2c(Oc3ccc4[nH]c(C)cc4c3F)ncnc2cc1OCCCN1CCCC1 , field inhibition: -0.2

Record CNC(=O)c1cc(Oc2ccc(NC(=O)Nc3ccc(Cl)c(C(F)(F)F)c3)cc2)ccn1 , field inhibition: -4.1

* * *

# systemTested: EPHA6 (human)
# measurementProtocol: Caliper, Mobility shift assay off-chip
# runParameters: compound 0.02 µM
reportedMetric: inhibition (%)
Express the result in % but write the number alone.

Worked cases, inhibition given:
[
  {
    "compoundStructureString": "CNC(=O)c1cc(Oc2ccc(NC(=O)Nc3ccc(Cl)c(C(F)(F)F)c3)cc2)ccn1",
    "inhibition [%]": 16.5
  },
  {
    "compoundStructureString": "CNC(=O)c1ccccc1Sc1ccc2c(/C=C/c3ccccn3)n[nH]c2c1",
    "inhibition [%]": 0.3
  },
  {
    "compoundStructureString": "Cc1ccc(Nc2nccc(N(C)c3ccc4c(C)n(C)nc4c3)n2)cc1S(N)(=O)=O",
    "inhibition [%]": 3.8
  }
]

For the next question, use this compound.
Record COc1cc2c(Oc3ccc4[nH]c(C)cc4c3F)ncnc2cc1OCCCN1CCCC1 , field inhibition: 37.1

Origin of measurements: the kinase profiling compilation of Christmann-Franck et al. (2016)
